Target: hCA I (Homo sapiens)
Construct: made in house; host or cells: Escherichia coli BL21 (DE3)
Sequence (P00915 whole entry): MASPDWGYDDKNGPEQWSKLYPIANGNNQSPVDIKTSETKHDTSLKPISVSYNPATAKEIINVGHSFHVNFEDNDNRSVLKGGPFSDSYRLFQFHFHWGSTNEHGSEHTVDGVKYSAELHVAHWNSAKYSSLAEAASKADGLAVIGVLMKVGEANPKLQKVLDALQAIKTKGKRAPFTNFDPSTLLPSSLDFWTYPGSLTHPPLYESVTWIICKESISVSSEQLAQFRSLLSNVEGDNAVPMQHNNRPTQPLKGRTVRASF
Assay: CA esterase activity assay, isozyme hCA I
Format: biochemical
Conditions: Table 3; read-out: KI against CA I
Entries and their measured Ki follow.

Below are worked cases with known answers.
[[record]]
structurenotation = "Cc1cc(C(C)C)[n+](-c2ccc(S(=O)(=O)Nc3nnc(S(N)(=O)=O)s3)cc2)c(C(C)C)c1"
result = "7 to 12 nM"

[[record]]
structurenotation = "Cc1cc(C(C)(C)C)[n+](-c2ccc(S(=O)(=O)Nc3nnc(S(N)(=O)=O)s3)cc2)c(C(C)(C)C)c1"
result = "7 to 12 nM"

[[record]]
structurenotation = "Cc1cc(-c2ccccc2)cc(C)[n+]1-c1ccc(S(=O)(=O)Nc2nnc(S(N)(=O)=O)s2)cc1"
result = "3 nM"

[[record]]
structurenotation = "CCCCc1cc(-c2ccccc2)cc(-c2ccccc2)[n+]1-c1ccc(S(=O)(=O)Nc2nnc(S(N)(=O)=O)s2)cc1"
result = "7 to 12 nM"

[[record]]
structurenotation = "CCCc1cc(-c2ccccc2)cc(-c2ccccc2)[n+]1-c1ccc(S(=O)(=O)Nc2nnc(S(N)(=O)=O)s2)cc1"
result = "7 to 12 nM"


Exercise: Tell me the measured Ki of CC(C)(C)c1cc(-c2ccccc2)cc(-c2ccccc2)[n+]1-c1ccc(S(=O)(=O)Nc2nnc(S(N)(=O)=O)s2)cc1 , please.
Solution: 7 to 12 nM

Exercise: Tell me the measured Ki of CCCc1cc(-c2ccccc2)cc(CCC)[n+]1-c1ccc(S(=O)(=O)Nc2nnc(S(N)(=O)=O)s2)cc1 , please.
Solution: 7 to 12 nM

Exercise: Tell me the measured Ki of CCCCc1cc(-c2ccccc2)cc(CCCC)[n+]1-c1ccc(S(=O)(=O)Nc2nnc(S(N)(=O)=O)s2)cc1 , please.
Solution: 7 to 12 nM

====

Target: hCA II (Homo sapiens, UniProt P00918)
Construct: made in house; host or cells: Escherichia coli BL21 (DE3)
Assay: CA esterase activity assay, isozyme hCA II
Format: biochemical
Details: Tables 1 and 3; read-out: KI against CA II
pKi: −log10 of the molar value.
Entries and their measured pKi follow.

Exercise: Tell me the measured pKi of CCCCc1cc(-c2ccccc2)cc(CCCC)[n+]1-c1ccc(S(=O)(=O)Nc2nnc(S(N)(=O)=O)s2)cc1 , please.
Solution: 8.22 to 8.50

Exercise: Tell me the measured pKi of NS(=O)(=O)c1nnc(NS(=O)(=O)c2ccc(-[n+]3c(-c4ccccc4)cc(-c4ccccc4)cc3-c3ccccc3)cc2)s1 , please.
Solution: 8.22 to 8.50

Exercise: Tell me the measured pKi of CCCc1cc(-c2ccccc2)cc(-c2ccccc2)[n+]1-c1ccc(S(=O)(=O)Nc2nnc(S(N)(=O)=O)s2)cc1 , please.
Solution: 8.22 to 8.50

Exercise: Tell me the measured pKi of CCCc1cc(-c2ccccc2)cc(CCC)[n+]1-c1ccc(S(=O)(=O)Nc2nnc(S(N)(=O)=O)s2)cc1 , please.
Solution: 8.22 to 8.50

Exercise: Tell me the measured pKi of CC(C)c1cc(-c2ccccc2)cc(-c2ccccc2)[n+]1-c1ccc(S(=O)(=O)Nc2nnc(S(N)(=O)=O)s2)cc1 , please.
Solution: 8.22 to 8.50

Exercise: Tell me the measured pKi of Cc1cc(C(C)C)[n+](-c2ccc(S(=O)(=O)Nc3nnc(S(N)(=O)=O)s3)cc2)c(C(C)C)c1 , please.
Solution: 8.79 to 9.70

Exercise: Tell me the measured pKi of CC(C)(C)c1cc(-c2ccccc2)cc(-c2ccccc2)[n+]1-c1ccc(S(=O)(=O)Nc2nnc(S(N)(=O)=O)s2)cc1 , please.
Solution: 8.22 to 8.50

Exercise: Tell me the measured pKi of Cc1cc(-c2ccccc2)cc(-c2ccccc2)[n+]1-c1ccc(S(=O)(=O)Nc2nnc(S(N)(=O)=O)s2)cc1 , please.
Solution: 8.79 to 9.70

Exercise: Tell me the measured pKi of CCc1cc(-c2ccccc2)cc(CC)[n+]1-c1ccc(S(=O)(=O)Nc2nnc(S(N)(=O)=O)s2)cc1 , please.
Solution: 8.79 to 9.70

Exercise: Tell me the measured pKi of CCCCc1cc(-c2ccccc2)cc(-c2ccccc2)[n+]1-c1ccc(S(=O)(=O)Nc2nnc(S(N)(=O)=O)s2)cc1 , please.
Solution: 8.22 to 8.50

Exercise: Tell me the measured pKi of CC(C)c1cc(-c2ccccc2)cc(C(C)C)[n+]1-c1ccc(S(=O)(=O)Nc2nnc(S(N)(=O)=O)s2)cc1 , please.
Solution: 8.79 to 9.70

====

Molecular target: bCA IV (Bos taurus)
Construct: CA IV was isolated from bovine lung microsomes as described by Maren et al; from tissue; host or cells: bovine lung microsomes
Sequence (Q95323 19-284): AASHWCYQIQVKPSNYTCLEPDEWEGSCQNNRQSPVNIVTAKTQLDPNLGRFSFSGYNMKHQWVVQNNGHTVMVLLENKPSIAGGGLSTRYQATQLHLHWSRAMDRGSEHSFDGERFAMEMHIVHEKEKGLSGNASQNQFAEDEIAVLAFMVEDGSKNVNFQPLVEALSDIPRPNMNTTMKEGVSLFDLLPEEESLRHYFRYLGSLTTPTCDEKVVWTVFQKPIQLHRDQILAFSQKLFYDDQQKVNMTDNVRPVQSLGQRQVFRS
Test: CA esterase activity assay, isozyme bCA IV
Type: biochemical, bovine
Settings: Table 3; read-out: KI against CA IV
Entries and their measured Ki follow.

Below are worked cases with known answers.
[[record]]
structurenotation = "NS(=O)(=O)c1nnc(NS(=O)(=O)c2ccc(-[n+]3c(-c4ccccc4)cc(-c4ccccc4)cc3-c3ccccc3)cc2)s1"
result = "5.2 to 10.3 nM"

[[record]]
structurenotation = "NS(=O)(=O)c1nnc(NS(=O)(=O)c2ccc(-[n+]3c(-c4ccccc4)cccc3-c3ccccc3)cc2)s1"
result = "5.2 to 10.3 nM"


Exercise: Tell me the measured Ki of Cc1cc(C(C)(C)C)[n+](-c2ccc(S(=O)(=O)Nc3nnc(S(N)(=O)=O)s3)cc2)c(C(C)(C)C)c1 , please.
Solution: 5.2 to 10.3 nM

Exercise: Tell me the measured Ki of CCCc1cc(-c2ccccc2)cc(CCC)[n+]1-c1ccc(S(=O)(=O)Nc2nnc(S(N)(=O)=O)s2)cc1 , please.
Solution: 5.2 to 10.3 nM

Exercise: Tell me the measured Ki of CCCCc1cc(-c2ccccc2)cc(CCCC)[n+]1-c1ccc(S(=O)(=O)Nc2nnc(S(N)(=O)=O)s2)cc1 , please.
Solution: 5.2 to 10.3 nM

Exercise: Tell me the measured Ki of CCCc1cc(-c2ccccc2)cc(-c2ccccc2)[n+]1-c1ccc(S(=O)(=O)Nc2nnc(S(N)(=O)=O)s2)cc1 , please.
Solution: 5.2 to 10.3 nM

Exercise: Tell me the measured Ki of Cc1c(-c2ccccc2)cc(C)[n+](-c2ccc(S(=O)(=O)Nc3nnc(S(N)(=O)=O)s3)cc2)c1C , please.
Solution: 5.2 to 10.3 nM

Exercise: Tell me the measured Ki of CC(C)(C)c1cc(-c2ccccc2)cc(-c2ccccc2)[n+]1-c1ccc(S(=O)(=O)Nc2nnc(S(N)(=O)=O)s2)cc1 , please.
Solution: 5.2 to 10.3 nM

Exercise: Tell me the measured Ki of CCCCc1cc(-c2ccccc2)cc(-c2ccccc2)[n+]1-c1ccc(S(=O)(=O)Nc2nnc(S(N)(=O)=O)s2)cc1 , please.
Solution: 5.2 to 10.3 nM

====

Entries and their measured Ki follow.
Molecular target: hCA IX (Homo sapiens)
Assay: CA CO2 hydrase activity assay, tumor-associated isozyme hCA IX
Details: KI against CA IX, text discussion of Tables 1-3

[[record]]
structurenotation = "Cc1cc(C)[n+](Cc2ccc(S(N)(=O)=O)cc2)c(C)c1C"
result = "6 to 54 nM"

[[record]]
structurenotation = "Cc1c(-c2ccccc2)cc(C)[n+](-c2ccc(S(=O)(=O)Nc3nnc(S(N)(=O)=O)s3)cc2)c1C"
result = "12 to 35 nM"

[[record]]
structurenotation = "Cc1cc(-c2ccccc2)cc(C)[n+]1-c1ccc(S(=O)(=O)Nc2nnc(S(N)(=O)=O)s2)cc1"
result = "3 to 9 nM"


Exercise: Tell me the measured Ki of CCCCc1cc(-c2ccccc2)cc(CCCC)[n+]1-c1ccc(S(=O)(=O)Nc2nnc(S(N)(=O)=O)s2)cc1 , please.
Solution: 40 to 43 nM

Exercise: Tell me the measured Ki of Cc1cc(C(C)C)[n+](-c2ccc(S(=O)(=O)Nc3nnc(S(N)(=O)=O)s3)cc2)c(C(C)C)c1 , please.
Solution: 12 to 35 nM

Exercise: Tell me the measured Ki of CCc1cc(-c2ccccc2)cc(CC)[n+]1-c1ccc(S(N)(=O)=O)cc1 , please.
Solution: 6 to 54 nM

Exercise: Tell me the measured Ki of Cc1cc(-c2ccccc2)cc(C)[n+]1CCc1ccc(S(N)(=O)=O)cc1 , please.
Solution: < 10 nM

Exercise: Tell me the measured Ki of CC(C)c1cc(-c2ccccc2)cc(C(C)C)[n+]1-c1ccc(S(=O)(=O)Nc2nnc(S(N)(=O)=O)s2)cc1 , please.
Solution: 12 to 35 nM

Exercise: Tell me the measured Ki of CCc1cc(-c2ccccc2)cc(-c2ccccc2)[n+]1-c1ccc(S(=O)(=O)Nc2nnc(S(N)(=O)=O)s2)cc1 , please.
Solution: 12 to 35 nM

Data credit: patent US8628771B2
